molecular target: MMP-2 (Homo sapiens); construct: made in house; host or cells: MMP-2-transfected p2AHT2 cells; assay: In vitro MMP inhibition, Ki determination (fluorogenic substrate II); type: biochemical; conditions: value not in parenthesis; read-out: MMP-2 Ki
Sequence (P08253 110-660): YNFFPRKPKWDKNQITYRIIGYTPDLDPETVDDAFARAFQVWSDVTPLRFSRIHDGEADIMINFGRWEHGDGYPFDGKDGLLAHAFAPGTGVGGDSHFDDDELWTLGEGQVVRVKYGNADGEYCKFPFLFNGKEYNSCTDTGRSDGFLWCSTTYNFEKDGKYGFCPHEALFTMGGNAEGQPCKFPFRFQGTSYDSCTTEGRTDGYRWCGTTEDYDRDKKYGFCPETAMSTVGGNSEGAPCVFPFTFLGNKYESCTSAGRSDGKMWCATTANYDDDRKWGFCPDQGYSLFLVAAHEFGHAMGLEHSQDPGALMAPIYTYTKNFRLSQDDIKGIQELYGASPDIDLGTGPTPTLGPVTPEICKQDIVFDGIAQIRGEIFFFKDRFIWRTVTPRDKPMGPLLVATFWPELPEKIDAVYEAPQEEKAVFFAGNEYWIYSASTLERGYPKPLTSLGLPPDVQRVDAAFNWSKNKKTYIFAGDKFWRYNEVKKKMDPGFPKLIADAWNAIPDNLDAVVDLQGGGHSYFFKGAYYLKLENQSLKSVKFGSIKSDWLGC
QUANTITY NAME: pKi
Just the number, please; pKi means minus log10 of the concentration in mol/L.

For orientation, consider the following solved cases.
CCCCOc1ccc(N2CCN(S(=O)(=O)C3(C(=O)NO)CCSCC3)CC2)cc1 [Example 232] = 7.58
CCCCOc1ccc(N2CCN(S(=O)(=O)C3(C(=O)NO)CCN(C(=O)OCCOC)CC3)CC2)cc1 [Example 141] = 9.58

The reported pKi of the compound CCCCCCCCCc1cnc(N2CCN(S(=O)(=O)C3(C(=O)NO)CCOCC3)CC2)nc1 [Example 110] was 7.21

The reported pKi of the compound O=C(NO)C1(S(=O)(=O)N2CCN(c3cnc(CCC(F)(F)F)cn3)CC2)CCOCC1 [Example 218] was 8.86

----------
biological target: MMP-9 (Homo sapiens, UniProt P14780); construct: made in house; host or cells: MMP-9-transfected HT1080 cells (spent media); test: In vitro MMP inhibition, Ki determination (fluorogenic substrate II); assay type: biochemical; conditions: value not in parenthesis
Sequence (P14780 107-707 limits assumed): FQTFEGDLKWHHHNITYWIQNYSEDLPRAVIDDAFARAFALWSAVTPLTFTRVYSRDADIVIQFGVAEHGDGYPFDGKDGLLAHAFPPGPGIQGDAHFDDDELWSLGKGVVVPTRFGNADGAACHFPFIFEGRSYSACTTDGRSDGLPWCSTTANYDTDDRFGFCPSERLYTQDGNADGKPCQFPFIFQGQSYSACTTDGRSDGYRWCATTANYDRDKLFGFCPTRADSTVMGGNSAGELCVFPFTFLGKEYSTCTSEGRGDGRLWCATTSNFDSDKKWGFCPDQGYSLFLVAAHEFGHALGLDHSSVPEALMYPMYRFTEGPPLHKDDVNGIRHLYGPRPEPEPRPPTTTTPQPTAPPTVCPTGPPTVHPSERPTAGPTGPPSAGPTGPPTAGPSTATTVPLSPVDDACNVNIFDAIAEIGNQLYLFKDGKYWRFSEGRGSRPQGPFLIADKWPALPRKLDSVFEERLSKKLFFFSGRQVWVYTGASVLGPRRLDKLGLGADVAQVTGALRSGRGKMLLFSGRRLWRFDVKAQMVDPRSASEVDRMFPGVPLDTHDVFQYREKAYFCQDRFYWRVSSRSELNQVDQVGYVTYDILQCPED
pKi: −log10 of the molar value.
Classification field: Satisfied = pKi at or over 9; Not satisfied = pKi under 9.

CCCCc1ccc(N2CCN(S(=O)(=O)C(C)C(=O)NO)CC2)nc1 (stereo not drawn) = Satisfied
Cc1ccc(N2CCN(S(=O)(=O)C3(C(=O)NO)CCOCC3)CC2)nc1 = Not satisfied
COCCN1CCC(C(=O)NO)(S(=O)(=O)N2CCN(c3ccc(OCCC(C)C)cc3)CC2)CC1 = Not satisfied
COCCN1CCC(C(=O)NO)(S(=O)(=O)N2CCN(c3ccc(CC(C)C)cc3)CC2)CC1 = Not satisfied

Attention now turns to another entry.
Query string: Reported pKi at or above 9? CCCCOc1ccc(N2CCN(S(=O)(=O)C3(C(=O)NO)CCN(CCCC(F)(F)F)CC3)CC2)cc1
Result string: Not satisfied

----------
molecular target: MMP-1 (Homo sapiens); construct: made in house; host or cells: MMP-1-transfected HT-1080 cells (spent media); test: MMP-1 inhibition (in vitro Ki); assay type: biochemical; settings: Table 9; read-out: MMP-1 Ki (IC-50)
Sequence (P03956 100-469, species assumed): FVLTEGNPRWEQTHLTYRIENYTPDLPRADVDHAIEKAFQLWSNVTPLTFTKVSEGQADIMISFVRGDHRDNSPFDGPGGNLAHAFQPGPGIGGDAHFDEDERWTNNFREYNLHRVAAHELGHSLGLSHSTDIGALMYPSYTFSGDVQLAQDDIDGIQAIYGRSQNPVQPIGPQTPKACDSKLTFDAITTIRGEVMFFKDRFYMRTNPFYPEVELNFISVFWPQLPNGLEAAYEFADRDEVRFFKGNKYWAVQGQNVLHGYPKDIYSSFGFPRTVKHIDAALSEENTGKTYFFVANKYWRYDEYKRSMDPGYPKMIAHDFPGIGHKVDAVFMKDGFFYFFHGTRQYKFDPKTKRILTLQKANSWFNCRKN
QUANTITY NAME: Ki (µM)
// return numeric value only (unit: µM, not printed)

O=C(NO)C1(S(=O)(=O)N2CCC(c3ccc(/C=C/C(F)(F)C(F)(F)F)cn3)CC2)CCOCC1 [Example A116] = 1.7
CCn1nnc(-c2ccc(N3CCN(S(=O)(=O)C4(C(=O)NO)CCOCC4)CC3)cc2)n1 [Example A186] = 0.924
O=C(/C=C/C=C/C1CCN(S(=O)(=O)C2(C(=O)NO)CCOCC2)CC1)N1CCc2ccccc21 [Example A80] = 5.45
CCC(CC)(C(=O)NO)S(=O)(=O)N1CCC(c2ccc(OCC3CC3)cn2)CC1 [Example A124] = 3.04
O=C(CCCCC1CCN(S(=O)(=O)C2(C(=O)NO)CCOCC2)CC1)N1CCOCC1 [Example A85] = 3.42
O=C(NO)C1(S(=O)(=O)N2CCC(c3ccc(OCC4CC4)cn3)CC2)CCOCC1 [Example A172] = 4.07

Record for CCCCC#Cc1ccc(C2CCN(S(=O)(=O)C3(C(=O)NO)CCOCC3)CC2)nc1 [Example A137] under target or system MMP-1 (Homo sapiens): Ki reported as 1.26

Record for O=C(NO)C1(S(=O)(=O)N2CCN(c3nnn(Cc4ccccc4)n3)CC2)CCOCC1 [Example A114] under target or system MMP-1 (Homo sapiens): Ki reported as 5.41

Record for O=C(CCCCC1CCN(S(=O)(=O)C2(C(=O)NO)CCOCC2)CC1)N1CCc2ccccc2C1 [Example A74] under target or system MMP-1 (Homo sapiens): Ki reported as 0.512

Record for C#CCN(C)C(=O)CCCCC1CCN(S(=O)(=O)C2(C(=O)NO)CCOCC2)CC1 [Example A83] under target or system MMP-1 (Homo sapiens): Ki reported as 0.277

Record for CCCC#Cc1ccc(C2CCN(S(=O)(=O)C3(C(=O)NO)CCOCC3)CC2)nc1 [Example A139] under target or system MMP-1 (Homo sapiens): Ki reported as 2.34

Record for COC(=O)CCCC#Cc1ccc(C2CCN(S(=O)(=O)C3(C(=O)NO)CCOCC3)CC2)nc1 [Example A136] under target or system MMP-1 (Homo sapiens): Ki reported as 4.3

Record for O=C(NO)C1(S(=O)(=O)N2CCC(c3ccc(-n4ccnc4)cn3)CC2)CCOCC1 [Example A188] under target or system MMP-1 (Homo sapiens): Ki reported as 3.31

Record for CN(C(=O)CCCCC1CCN(S(=O)(=O)C2(C(=O)NO)CCOCC2)CC1)C1CCCCC1 [Example A96] under target or system MMP-1 (Homo sapiens): Ki reported as 1.11
